Target: recombinant GST-p110γ (human PI3Kγ, residues 38-1102) (Homo sapiens, UniProt P48736)
Construct: Residues 38-1102 of human PI3Kγ are subcloned into the BamH1 and EcoR1 sites
Sequence (P48736 38-1102): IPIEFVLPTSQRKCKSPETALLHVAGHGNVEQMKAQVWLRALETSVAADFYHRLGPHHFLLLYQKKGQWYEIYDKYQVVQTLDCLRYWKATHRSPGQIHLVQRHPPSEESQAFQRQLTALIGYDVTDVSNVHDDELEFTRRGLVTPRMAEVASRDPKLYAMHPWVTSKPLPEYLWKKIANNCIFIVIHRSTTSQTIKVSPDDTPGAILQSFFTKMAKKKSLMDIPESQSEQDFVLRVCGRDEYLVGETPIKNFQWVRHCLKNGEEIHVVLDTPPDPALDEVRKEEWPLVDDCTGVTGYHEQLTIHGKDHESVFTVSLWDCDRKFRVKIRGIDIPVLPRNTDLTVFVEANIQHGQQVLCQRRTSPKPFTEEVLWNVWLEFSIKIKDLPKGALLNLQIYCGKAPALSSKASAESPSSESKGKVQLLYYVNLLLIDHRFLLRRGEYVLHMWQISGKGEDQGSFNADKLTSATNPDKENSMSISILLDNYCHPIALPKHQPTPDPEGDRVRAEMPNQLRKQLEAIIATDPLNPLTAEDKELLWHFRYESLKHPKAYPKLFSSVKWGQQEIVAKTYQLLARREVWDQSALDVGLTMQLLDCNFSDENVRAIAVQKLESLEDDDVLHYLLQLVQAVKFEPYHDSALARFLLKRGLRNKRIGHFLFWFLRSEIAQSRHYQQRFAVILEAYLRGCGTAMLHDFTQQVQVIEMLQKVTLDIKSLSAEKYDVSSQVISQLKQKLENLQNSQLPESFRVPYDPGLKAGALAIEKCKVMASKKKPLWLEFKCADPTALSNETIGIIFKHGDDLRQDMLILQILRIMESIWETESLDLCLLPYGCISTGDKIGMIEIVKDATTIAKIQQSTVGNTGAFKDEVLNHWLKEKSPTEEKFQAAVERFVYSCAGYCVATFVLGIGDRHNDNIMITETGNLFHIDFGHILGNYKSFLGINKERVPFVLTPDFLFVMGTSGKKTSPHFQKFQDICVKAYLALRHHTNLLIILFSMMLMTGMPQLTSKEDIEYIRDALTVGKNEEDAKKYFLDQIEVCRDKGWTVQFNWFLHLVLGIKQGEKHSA
Test: PI3Kγ in vitro kinase assay (Scintillation Proximity Assay), transfer of terminal phosphate of ATP to phosphatidylinositol
Conditions: 12.5 μM ATP, 15 μg/ml phosphatidylinositol, 60 minutes at room temperature
observable: IC50 (nM)

Please review the following examples before continuing.
smiles_str | quantity_unit | IC50
COCCNC(=O)Nc1nc(C)c(-c2ccnc(C(C)(C)C)n2)s1 | nM | 5
CCc1cnc(CCNC(=O)Nc2nc(C)c(-c3ccnc(Cl)c3)s2)o1 | nM | 73
CCc1cnc(CCNC(=O)Nc2nc(C)c(-c3cc(C)nc(OC)n3)s2)o1 | nM | 127
CCOC(=O)CCNC(=O)Nc1nc(C)c(-c2ccncc2)s1 | nM | 106

P. Cc1nc(NC(=O)NCc2cccn2C)sc1-c1ccncc1
Q. CCOCCNC(=O)Nc1nc(C)c(-c2ccnc(C(C)(C)C)n2)s1
// query Which record would sort first by descending IC50, P or Q ? Your answer should be the label attached to the chosen record.
// result P
(P: 50 nM, Q: 8 nM)
